Target: hERG channel (Homo sapiens)
Construct: purchased Invitrogen
Sequence (Q12809 whole entry): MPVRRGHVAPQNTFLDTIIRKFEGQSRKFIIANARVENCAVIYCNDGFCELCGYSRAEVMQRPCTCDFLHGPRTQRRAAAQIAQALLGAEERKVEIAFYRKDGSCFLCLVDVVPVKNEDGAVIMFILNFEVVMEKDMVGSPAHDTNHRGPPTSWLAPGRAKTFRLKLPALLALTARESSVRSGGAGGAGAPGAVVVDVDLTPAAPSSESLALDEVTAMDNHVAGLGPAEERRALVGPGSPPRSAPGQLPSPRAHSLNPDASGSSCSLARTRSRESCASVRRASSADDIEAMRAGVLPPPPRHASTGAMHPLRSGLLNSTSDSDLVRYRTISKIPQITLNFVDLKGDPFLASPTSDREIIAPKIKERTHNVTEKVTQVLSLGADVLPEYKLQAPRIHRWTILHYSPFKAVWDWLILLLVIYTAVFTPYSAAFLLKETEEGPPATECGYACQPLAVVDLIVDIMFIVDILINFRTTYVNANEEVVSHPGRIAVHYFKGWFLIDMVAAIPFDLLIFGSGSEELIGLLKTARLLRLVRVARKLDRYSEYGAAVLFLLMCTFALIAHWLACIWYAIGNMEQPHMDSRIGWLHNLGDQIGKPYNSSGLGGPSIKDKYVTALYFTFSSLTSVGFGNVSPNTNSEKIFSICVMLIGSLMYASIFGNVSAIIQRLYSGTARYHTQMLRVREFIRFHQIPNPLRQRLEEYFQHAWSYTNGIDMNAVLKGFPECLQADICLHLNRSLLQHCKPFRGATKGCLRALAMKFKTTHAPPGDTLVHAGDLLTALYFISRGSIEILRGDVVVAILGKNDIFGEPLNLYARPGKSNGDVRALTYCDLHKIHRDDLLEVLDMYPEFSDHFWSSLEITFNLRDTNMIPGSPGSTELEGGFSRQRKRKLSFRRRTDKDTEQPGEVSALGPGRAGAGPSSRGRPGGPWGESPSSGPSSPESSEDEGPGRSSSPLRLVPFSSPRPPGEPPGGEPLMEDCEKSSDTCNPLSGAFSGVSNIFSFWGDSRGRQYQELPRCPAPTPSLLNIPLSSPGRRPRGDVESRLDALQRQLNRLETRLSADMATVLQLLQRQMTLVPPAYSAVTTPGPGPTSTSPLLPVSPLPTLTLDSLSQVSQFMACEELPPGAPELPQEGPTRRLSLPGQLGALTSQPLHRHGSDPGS
Assay: Predictor hERG fluorescence polarization assay
Assay type: binding
Method: This study was conducted using the Predictor hERG Fluorescence Polarization Assay Kit purchased from Invitrogen. The kit comprises Predictor hERG Tracer Red, Predictor hERG Membrane, Predictor hERG FP Assay Buffer, and E-4031 as the positive control. […] After incubating the assay plate at 25 °C for 4 h, fluorescence polarization (FP) values (mp values) were measured using an EnVision microplate reader (PerkinElmer) equipped with a set of polarized filters. […]
No end group written: not given here.
Value Kind: IC50

Which IC50 reading was recorded for the sequence ELELVVSTAFYRFFRHAR [Peptide-3] ?
> 50 µM

---

Target: NRP1 (Homo sapiens)
Construct: purchased Abcam
Sequence (O14786 22-923): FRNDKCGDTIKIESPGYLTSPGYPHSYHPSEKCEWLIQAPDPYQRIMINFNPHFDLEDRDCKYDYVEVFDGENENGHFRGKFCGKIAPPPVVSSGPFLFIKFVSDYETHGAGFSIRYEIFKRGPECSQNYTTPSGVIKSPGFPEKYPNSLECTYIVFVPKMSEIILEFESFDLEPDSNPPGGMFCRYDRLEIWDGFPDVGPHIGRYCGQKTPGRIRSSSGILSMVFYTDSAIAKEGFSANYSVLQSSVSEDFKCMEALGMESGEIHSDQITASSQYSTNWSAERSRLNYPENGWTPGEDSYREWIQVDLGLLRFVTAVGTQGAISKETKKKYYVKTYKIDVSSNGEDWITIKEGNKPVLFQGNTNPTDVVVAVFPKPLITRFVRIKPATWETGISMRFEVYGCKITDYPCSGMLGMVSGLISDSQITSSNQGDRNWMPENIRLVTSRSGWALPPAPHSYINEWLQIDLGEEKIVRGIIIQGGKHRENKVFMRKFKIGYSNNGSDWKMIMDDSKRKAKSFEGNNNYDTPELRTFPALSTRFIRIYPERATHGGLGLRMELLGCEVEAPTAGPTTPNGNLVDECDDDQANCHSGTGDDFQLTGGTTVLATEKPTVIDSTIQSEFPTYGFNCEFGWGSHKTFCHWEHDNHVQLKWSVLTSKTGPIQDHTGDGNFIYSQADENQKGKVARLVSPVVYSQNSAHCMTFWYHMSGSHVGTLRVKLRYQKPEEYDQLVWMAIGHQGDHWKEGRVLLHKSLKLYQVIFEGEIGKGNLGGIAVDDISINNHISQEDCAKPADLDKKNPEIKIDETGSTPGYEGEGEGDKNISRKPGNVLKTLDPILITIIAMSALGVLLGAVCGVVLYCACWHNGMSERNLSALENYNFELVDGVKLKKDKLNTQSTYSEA
Assay: MST binding affinity to NRP1
No end group written: not given here.
Value Kind: pKd
// scale note: pKd = -log10(conc_M); give the bare number

Which pKd reading was recorded for the sequence ELELVVSTAFYRFFRHAR [Peptide-3] ?
7.09
